- test_description: MTS score (Table 1; method not described)
- Type: cell-based
- run_parameters: score at nominal 30 μM; 4 = No Effect
endpoint: MTS 30 μM
Hey, just send me the number, nothing else.

Consider Cc1ncc(C[n+]2csc(CCOC(=O)C3C4CC5CC(C4)CC3C5)c2C)c(N)n1.Cl.[Cl-] (stereo not shown) [Compound 26] . Its measured MTS 30 μM is 4

Consider Cc1ccc(C(C)C)c(OCC(=O)NN=Cc2ccc(C(=O)O)cc2)c1 [Compound 65] . Its measured MTS 30 μM is 4

Consider Nc1nc(-c2ccccc2Cl)cs1 [Compound 15] . Its measured MTS 30 μM is 3

Next:
Consider Cc1ccc(OCC(=O)NN=Cc2ccncc2)cc1 [Compound 56] . Its measured MTS 30 μM is 3

Consider Cc1nc2ccccc2n1Cc1ccc(Br)cc1 [Compound 18] . Its measured MTS 30 μM is 1

Consider Cc1ccc(OCC(=O)NN=Cc2c(Br)cc(Br)c(O)c2Br)cc1 [Compound 3] . Its measured MTS 30 μM is 3

Consider Oc1ccc(C=NNc2cc(N3CCOCC3)nc(N3CCOCC3)n2)c(O)c1 [Compound 9] . Its measured MTS 30 μM is 1

Consider O=[N+]([O-])c1c(Cl)cc(O)c2c1C1C=CCC1C(c1ccc(Br)cc1)N2 (stereo not shown) [Compound 25] . Its measured MTS 30 μM is 1

Consider Cc1cc(F)ccc1NCc1ccccn1 [Compound 16] . Its measured MTS 30 μM is 4

Consider O=C(COc1ccc2ccccc2c1)NN=Cc1cc(O)c(O)c(Br)c1 [Compound 53] . Its measured MTS 30 μM is 1

Consider Cc1ccc(NCC(=O)NN=Cc2c(Br)cc(Br)c(O)c2Br)cc1 [Compound 17] . Its measured MTS 30 μM is 1

Consider O=C(O)c1ccc2c(c1)C1C=CCC1C(c1ccc([N+](=O)[O-])cc1)N2 (stereo not shown) [Compound 41] . Its measured MTS 30 μM is 4

Consider CCc1ccc(OCCCCCn2ccnc2)cc1 [Compound 58] . Its measured MTS 30 μM is 1

Consider CCN(CC)c1ccc(C=Nc2ccc(Sc3ccc([N+](=O)[O-])cc3)cc2)cc1 [Compound 70] . Its measured MTS 30 μM is 4

Consider O=C(NN=Cc1c(Br)cc(Br)c(O)c1Br)c1ccccc1[N+](=O)[O-] [Compound 23] . Its measured MTS 30 μM is 4

Consider Cc1ccc(S(=O)(=O)NN=Cc2cc(Br)cc(Br)c2O)cc1 [Compound 73] . Its measured MTS 30 μM is 3

---

- test_description: MTS score (Table 1; method not described)
- Format: cell-based
- run_parameters: average of the MTS scores at 10, 30 and 100 μM
Parameter MTS AVG 4 (No Effect): see the listing below.
Hey, just send me the number, nothing else.

Consider O=C(COc1ccc2ccccc2c1)NN=Cc1cc(O)c(O)c(Br)c1 . Its measured MTS AVG 4 (No Effect) is 2.000

Consider O=C(NN=Cc1cc(Cl)cc([N+](=O)[O-])c1O)c1ccc2c(c1)OCO2 . Its measured MTS AVG 4 (No Effect) is 2.000

Consider Oc1ccc(C=NNc2cc(N3CCOCC3)nc(N3CCOCC3)n2)c(O)c1 . Its measured MTS AVG 4 (No Effect) is 2.000

Consider COc1ccc(NS(=O)(=O)c2ccc(Br)cc2)cc1OC . Its measured MTS AVG 4 (No Effect) is 1.667

Consider O=C(O)C(S)Cc1ccc(Cl)cc1 (stereo not drawn) . Its measured MTS AVG 4 (No Effect) is 2.000

Next:
Consider CC(C)(C)c1ccc(OCCN2CCOCC2)cc1 . Its measured MTS AVG 4 (No Effect) is 3.333

Consider Cc1ccc(OCC(=O)NN=Cc2ccncc2)cc1 . Its measured MTS AVG 4 (No Effect) is 3.333

Consider O=C(O)c1ccc2c(c1)C1C=CCC1C(c1ccc([N+](=O)[O-])cc1)N2 (stereo not drawn) . Its measured MTS AVG 4 (No Effect) is 3.667

Consider Cc1ccc(NCC(=O)NN=Cc2c(Br)cc(Br)c(O)c2Br)cc1 . Its measured MTS AVG 4 (No Effect) is 2.333

Consider CCOC(=O)c1c(N2C(=O)C=CC2=O)sc2c1CCCC2 . Its measured MTS AVG 4 (No Effect) is 3.667

Consider O=[N+]([O-])c1c(Cl)cc(O)c2c1C1C=CCC1C(c1ccc(Br)cc1)N2 (stereo not drawn) . Its measured MTS AVG 4 (No Effect) is 1.000

Consider Nc1nc(-c2ccccc2Cl)cs1 . Its measured MTS AVG 4 (No Effect) is 3.000

---

- target_of_assay: recombinant HIV-1 capsid protein (CA) (Human immunodeficiency virus type 1 group M subtype B)
- Construct: recombinant HIV-1 capsid protein (CA)
- test_description: Turbidity based HIV-1 capsid assembly assay
- run_parameters: initial assembly rate by turbidity; twofold dilutions over a 128 fold range; 30 μM CA, 2.25 M NaCl
- Description: The kinetics can be followed by monitoring the increase of turbidity using a spectrophotometer. The IC50 of the chemical compound tested is determined by titration. As the C-domain inhibits capsid assembly by forming CA-C-domain heterodimers, the effect of added C-terminal domain on the rate of assembly was evaluated by plotting the rate of assembly versus C-terminal domain concentration. […]
endpoint: pIC50
Please note pIC50 is a logarithmic value: minus log10 of concentration in mol/L. Answer with that number alone.

Some compounds with known pIC50 results, for comparison:
Consider CCN(CC)c1ccc(C=Nc2ccc(Sc3ccc([N+](=O)[O-])cc3)cc2)cc1 [Compound 70] . Its measured pIC50 is 4.48

Consider O=C1Nc2c(Br)cc(Br)cc2C1=NNC(=O)C(O)c1ccccc1 (stereo not drawn) [Compound 50] . Its measured pIC50 is 4.82

Consider Nc1nc(-c2ccccc2Cl)cs1 [Compound 15] . Its measured pIC50 is 4.22

Consider COc1ccc(OCC(=O)NN=Cc2cc(O)c(O)c(Br)c2)c(Br)c1 [Compound 71] . Its measured pIC50 is 4.62

Consider CC(=NNC(=O)C(O)c1ccccc1)c1ccc2c(c1)CCCC2 (stereo not drawn) [Compound 6] . Its measured pIC50 is 5.05

Next:
Consider COc1ccc(NS(=O)(=O)c2ccc(Br)cc2)cc1OC [Compound 14] . Its measured pIC50 is 5.00

Consider Cc1ccc(C(C)C)c(OCC(=O)NN=Cc2ccc(C(=O)O)cc2)c1 [Compound 65] . Its measured pIC50 is 4.85

Consider O=C(O)c1ccc2c(c1)C1C=CCC1C(c1ccc([N+](=O)[O-])cc1)N2 (stereo not drawn) [Compound 41] . Its measured pIC50 is 4.74

Consider CCOC(=O)c1c(N2C(=O)C=CC2=O)sc2c1CCCC2 [Compound 8] . Its measured pIC50 is 5.40
